All figures here come from ChEMBL document CHEMBL1156475.

ASSAY: Inhibition of beta lactamase TEM1
MEASURE: pIC50
pIC50 field: float, defined as -log10 of concentration (mol/L).

Prompt line: Recorded pIC50 of C[C@]1(COC(=O)Cc2ccccc2)[C@H](C(=O)O)N2C(=O)/C(=C/c3ccccn3)[C@H]2S1(=O)=O , please.
Response line: 7.40
